- TESTED TARGET: CEP55 binding peptide from ALIX (human, UniProt Q8WUM4)
- TEST DESCRIPTION: FP
RECORDED ENDPOINT: Kd

[[record]]
binder = "centrosomal protein of 55 kDa EABR domain (domain or fragment) FNSSINNIHEMEIQLKDALEKNQQWLVYDQQREVYVKGLLAKIFELEKKTETAAH"
result = "~300 nM"

